Exercise: for every item that follows, state its recorded pEC50.
target: human GLP-1 receptor (hGLP-1R) (Homo sapiens, UniProt P43220); construct: expressed in transfected cells; assay: GLP-1 receptor assay, method A (CRE-luciferase reporter, BHK cells); type: cell-based; conditions: method A, absence of HSA; read-out: hGLP-1R Potency, no HSA, EC50
Sequence (P43220 24-463): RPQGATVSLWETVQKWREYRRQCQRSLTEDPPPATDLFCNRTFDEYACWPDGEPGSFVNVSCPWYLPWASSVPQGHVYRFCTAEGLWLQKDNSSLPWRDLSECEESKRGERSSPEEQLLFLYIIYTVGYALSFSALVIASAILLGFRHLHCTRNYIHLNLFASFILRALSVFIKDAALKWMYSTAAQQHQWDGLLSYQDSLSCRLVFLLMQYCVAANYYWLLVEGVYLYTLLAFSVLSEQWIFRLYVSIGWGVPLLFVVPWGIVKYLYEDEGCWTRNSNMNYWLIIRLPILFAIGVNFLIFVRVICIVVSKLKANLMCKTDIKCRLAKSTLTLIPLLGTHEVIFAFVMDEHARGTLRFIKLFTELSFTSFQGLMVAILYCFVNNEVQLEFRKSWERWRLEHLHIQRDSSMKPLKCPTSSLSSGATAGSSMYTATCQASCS
Numbered stars: 1 amine (or outer) side, 2 acyl side, 3 side chain; on linkers, the order of the positions; unused ones are H or OH. Square brackets hold non-standard residues; d marks the D form. Side chains are listed from the residue outwards. * marks the point of attachment. C20 diacid = O=C(O)CCCCCCCCCCCCCCCCCCC(=O)*; C18 diacid = O=C(O)CCCCCCCCCCCCCCCCC(=O)*; C16 diacid = O=C(O)CCCCCCCCCCCCCCC(=O)*; γGlu = O=C(O)[C@H](CCC(=O)[*:2])N[*:1]; AEEA = NCCOCCOCC(=O)O; Aib = CC(C)(N)C(=O)O
Answers are plain numbers, as −log10 of the molar value.

Some solved entries appear below for comparison.
• Y[Aib]EGTFTSDYSILLEEQAAREFIEWLLAGGPSSK([AEEA-AEEA-γGlu-C18 diacid])APPPSGGGEASELSTAALGRLSAELHRLATLPRTETGSGSP-NH2 [Compound 31] = 10.32
• Y[Aib]EGTFTSDYSILLEEQAAREFIEWLLAGGPSSGEASHLSTAQTQRLSAELHRLK([AEEA-AEEA-γGlu-C18 diacid])TLPRTETGSGSP-NH2 [Compound 80] = 10.61
• Y[Aib]EGTFTSDYSILLEEQAAREFIEWLLAGGPSGGGGEASHLSTAQTQRLSAELHK([AEEA-AEEA-γGlu-C20 diacid])LATLPRTETGSGSP-NH2 [Compound 96] = 10.77
• Y[Aib]EGTFTSDYSILLEEQAAREFIEWLLAGGPSSGALAQTLAQTLASHLSTAQTQRLSAELHK([AEEA-AEEA-γGlu-C16 diacid])LATLPRTETGSGSP-NH2 [Compound 59] = 10.30
• Y[Aib]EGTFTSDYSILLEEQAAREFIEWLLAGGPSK([AEEA-AEEA-γGlu-C18 diacid])GGQAPGQAPGEASHLSTAQTQRLSAELHELATLPRTETGSGSP-NH2 [Compound 38] = 10.92
• Y[Aib]EGTFTSDYSILLEEQAAREFIEWLLAGGPSSGAPPPSGGGEASHLSTAQTQRLSAK([AEEA-AEEA-γGlu-C18 diacid])LHRLATLPRTETGSGSP-NH2 [Compound 109] = 10.16
• H[Aib]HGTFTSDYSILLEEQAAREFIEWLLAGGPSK([AEEA-AEEA-γGlu-C16 diacid])GEASELSTAALGRLSAELHRLATLPRTETGSGSP-NH2 [Compound 17] = 11.57
• H[Aib]HGTFTSDYSILLEEQAAREFIEWLLAGGPSGGEASHLSTAQTQRLSAELHK([AEEA-AEEA-γGlu-C18 diacid])LATLPRTETGSGSP-NH2 [Compound 75] = 11.44

For each of the substances below, note its pEC50.
1. Y[Aib]EGTFTSDYSILLEEQAAREFIEWLLAGGPSSGAGQAPGQAPGASHLSTAQTQRLSAELHRLATLPK([AEEA-AEEA-γGlu-C20 diacid])TETGSGSP-NH2 [Compound 76]
2. H[Aib]HGTFTSDYSILLEEQAAREFIEWLLAGGPSSGEASHLSTAALGRLSAK([AEEA-AEEA-γGlu-C18 diacid])LHRLATLPRTETGSGSP-NH2 [Compound 87]
3. Y[Aib]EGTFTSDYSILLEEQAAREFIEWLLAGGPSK([AEEA-AEEA-γGlu-C18 diacid])GEASELSTAALGRLSAELHELATLPRTETGSGSP-NH2 [Compound 26]
4. Y[Aib]EGTFTSDYSILLEEQAAREFIEWLLAGGPSSGAGQAPGQAPGASHLSTAQTQRLSAELHRLK([AEEA-AEEA-γGlu-C18 diacid])TLPRTETGSGSP-NH2 [Compound 56]
5. H[Aib]HGTFTSDYSILLEEQAAREFIEWLLAGGPSSGEASHLSTAALGRLSAELHRLK([AEEA-AEEA-γGlu-C18 diacid])TLPRTETGSGSP-NH2 [Compound 89]

Response:
10.70
11.07
10.68
10.74
11.41

For each of the substances below, note its pEC50.
1. Y[Aib]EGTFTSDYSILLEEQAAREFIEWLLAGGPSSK([γGlu-C20 diacid])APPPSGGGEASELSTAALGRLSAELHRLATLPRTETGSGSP-NH2 [Compound 42]
2. H[Aib]HGTFTSDYSILLEEQAAREFIEWLLAGGPSSGEASHLSTAALGRLSAELHRLATLPK([AEEA-AEEA-γGlu-C18 diacid])TETGSGSP-NH2 [Compound 90]
3. H[Aib]HGTFTSDYSILLEEQAAREFIEWLLAGGPSSGALQAPGQAPGASHLSTAQTARLSAELHRLK([AEEA-AEEA-γGlu-C18 diacid])TLPRTETGSGSP-NH2 [Compound 106]
4. Y[Aib]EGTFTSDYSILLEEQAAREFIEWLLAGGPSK([AEEA-AEEA-γGlu-C18 diacid])GALAQTLAQTLASELSTAALGRLSAELHELATLPRTETGSGSP-NH2 [Compound 21]

Response:
1: 10.21; 2: 11.38; 3: 11.48; 4: 10.39
